Entry source: ChEMBL document CHEMBL4609981

- target-entity: Neuropilin-1 (Homo sapiens)
- Sequence (O14786 whole entry): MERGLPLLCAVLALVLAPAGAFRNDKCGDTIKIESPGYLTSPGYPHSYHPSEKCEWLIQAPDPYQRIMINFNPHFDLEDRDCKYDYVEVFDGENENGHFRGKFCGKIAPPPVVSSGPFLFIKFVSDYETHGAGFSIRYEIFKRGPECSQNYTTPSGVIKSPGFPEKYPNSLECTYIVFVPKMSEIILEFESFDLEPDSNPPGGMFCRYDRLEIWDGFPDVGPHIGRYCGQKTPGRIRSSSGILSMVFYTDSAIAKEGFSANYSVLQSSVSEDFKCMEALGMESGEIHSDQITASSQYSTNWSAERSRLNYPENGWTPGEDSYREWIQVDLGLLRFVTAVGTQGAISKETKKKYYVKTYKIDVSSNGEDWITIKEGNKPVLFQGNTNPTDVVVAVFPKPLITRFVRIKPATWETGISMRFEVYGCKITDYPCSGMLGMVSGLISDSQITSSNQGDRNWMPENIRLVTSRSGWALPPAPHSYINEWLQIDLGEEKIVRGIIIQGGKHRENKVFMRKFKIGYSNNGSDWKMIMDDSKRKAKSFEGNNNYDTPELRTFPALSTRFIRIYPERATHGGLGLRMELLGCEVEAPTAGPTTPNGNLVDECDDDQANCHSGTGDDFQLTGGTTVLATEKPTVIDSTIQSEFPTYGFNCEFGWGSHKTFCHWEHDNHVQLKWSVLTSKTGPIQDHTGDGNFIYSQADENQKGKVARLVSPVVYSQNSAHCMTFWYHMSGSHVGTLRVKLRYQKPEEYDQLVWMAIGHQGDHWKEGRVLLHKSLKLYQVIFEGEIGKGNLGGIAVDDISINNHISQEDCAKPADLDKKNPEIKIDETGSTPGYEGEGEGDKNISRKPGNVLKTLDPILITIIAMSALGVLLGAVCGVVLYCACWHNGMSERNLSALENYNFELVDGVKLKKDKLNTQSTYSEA
- assay-summary: Inhibition of recombinant human biotinylated VEGF-165A expressed in HEK293 cells binding to immobilized recombinant full length human FC-tagged NRP1 (chimera active) expressed in HEK293 cells at 50 uM using TMB as substrate incubated for 2 hrs followed by substrate addition by competitive ELISA relative to control
Measured inhibition of individual entries
The figure you give is taken to be in %; do not add the unit.

Name the recorded inhibition of the compound listed here: CCc1nnc(NC(=O)CSc2nnc(-c3ccc(Cl)cc3)n2-c2cccc(C)c2)s1 37.4

Name the recorded inhibition of the compound listed here: CCCc1nnc(NC(=O)CSc2nnc(-c3ccccc3)n2-c2cccc(C)c2)s1 47.8

Name the recorded inhibition of the compound listed here: CCc1nnc(NC(=O)CSc2nnc(-c3ccccc3)n2-c2cccc(F)c2)s1 6

Name the recorded inhibition of the compound listed here: COCc1nnc(NC(=O)CSc2nnc(-c3ccccc3)n2-c2cccc(C)c2)s1 10.3
